molecules and their reported IC50
- target: A2A receptor (Homo sapiens, UniProt P29274)
- Sequence (P29274 whole entry): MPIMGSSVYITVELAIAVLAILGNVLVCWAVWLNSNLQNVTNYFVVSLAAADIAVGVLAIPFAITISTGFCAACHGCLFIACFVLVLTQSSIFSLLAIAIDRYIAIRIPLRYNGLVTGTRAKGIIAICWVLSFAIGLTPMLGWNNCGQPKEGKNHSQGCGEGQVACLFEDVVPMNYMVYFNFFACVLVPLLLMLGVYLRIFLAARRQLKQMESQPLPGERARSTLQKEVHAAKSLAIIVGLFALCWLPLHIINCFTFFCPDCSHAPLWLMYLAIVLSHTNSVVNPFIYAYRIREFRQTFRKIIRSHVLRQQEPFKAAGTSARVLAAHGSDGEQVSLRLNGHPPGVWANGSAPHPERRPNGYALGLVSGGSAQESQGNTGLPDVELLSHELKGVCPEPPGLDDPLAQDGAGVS
- test.description: Human IL-2 T cell assay (restoration of IL-2 production in CGS-21680-treated CD3+ T cells)
- Format: cell-based
- Design: endogenous in cells; host or cells: human CD3+ T cells isolated from venous blood of healthy volunteers
- settings: IC50 (nM) (5000 nM CGS-21680 as agonist, 50% HSA), restoration of IL-2 production, human CD3+ T cells, anti-CD3/CD28 beads, 5000 nM CGS-21680, 50% HSA, 72 hours
Provide only the numeric value, understood in nM.

Qu. What value of IC50 has been reported for the following molecule? Nc1nc2c(sc(=O)n2CCN2CCN(c3ccc(OCC(=O)O)cc3F)CC2)c2nc(-c3ccco3)nn12 [Compound 35]
Ans. 84

Qu. Given CN(C)CCNC(=O)c1ccc(N2CCN(CCn3c(=O)sc4c3nc(N)n3nc(-c5ccco5)nc43)CC2)c(F)c1 [Compound 32] , state its recorded IC50.
Ans. 28

Qu. Quick one: IC50 for CC(C)(Oc1ccc(N2CCN(CCn3c(=O)sc4c3nc(N)n3nc(-c5ccco5)nc43)CC2)c(F)c1)C(=O)O [Compound 39] ?
Ans. 150

Qu. Which value of IC50 has been reported for Nc1nc2c(sc(=O)n2CCN2CCN(c3cc(OCC(=O)O)c(F)cc3F)CC2)c2nc(-c3ccco3)nn12 [Compound 43] in the records?
Ans. 51

Qu. Look up IC50: Nc1nc2c(sc(=O)n2CCN2CCN(c3ccc(OCc4n[nH]c(=O)o4)cc3F)CC2)c2nc(-c3ccco3)nn12 [Compound 2]
Ans. 18

Next:
Qu. What IC50 value was documented for this molecule, NC(=O)COc1cc(N2CCN(CCn3c(=O)sc4c3nc(N)n3nc(-c5ccco5)nc43)CC2)c(F)cc1F [Compound 4] ?
Ans. 63

Qu. Item Nc1nc2c(sc(=O)n2CCN2CCN(c3ccc(C(=O)O)cc3F)CC2)c2nc(-c3ccco3)nn12 [Compound 44] has what recorded IC50?
Ans. 33

* * *

- test.description: Concentration in brain and cerebrospinal fluid compared to plasma
- Assay type: in vivo, mice
- settings: female, Balb-c, mouse, brain, po, 10 mg/kg, individual mice, PO 10 mg/kg, 0.500 h; read-out: Brain/Plasma Ratio
quantity.measured: Kp at 0.5 h

Qu. Using the record for NC(=O)COc1cc(N2CCN(CCn3c(=O)sc4c3nc(N)n3nc(-c5ccco5)nc43)CC2)c(F)cc1F , report its Kp at 0.5 h.
Ans. < 0.026

* * *

- target: A2A receptor (Homo sapiens, UniProt P29274)
- test.description: Human IL-2 T cell assay (restoration of IL-2 production in CGS-21680-treated CD3+ T cells)
- Format: cell-based
- Parameters: endogenous in cells; host or cells: human CD3+ T cells isolated from venous blood of healthy volunteers
- settings: IC50 (nM) (5000 nM CGS-21680 as agonist, 50% HSA), restoration of IL-2 production, human CD3+ T cells, anti-CD3/CD28 beads, 5000 nM CGS-21680, 50% HSA, 72 hours
Listing of recorded IC50 by entry.
Give just the numeric value; nM need not be written.

Known results for molecules:
Qu. Suppose we examine the molecule CNCCNC(=O)COc1ccc(N2CCN(CCn3c(=O)sc4c3nc(N)n3nc(-c5ccco5)nc43)CC2)c(F)c1 ; what IC50 value has been reported?
Ans. 28

Qu. // query IC50 value for entry CNCCNC(=O)c1ccc(N2CCN(CCn3c(=O)sc4c3nc(N)n3nc(-c5ccco5)nc43)CC2)c(F)c1
Ans. 14

Qu. GET /values?readout=IC50&item= Nc1nc2c(sc(=O)n2CCN2CCN(c3ccc(OCc4c[nH]nn4)cc3F)CC2)c2nc(-c3ccco3)nn12
Ans. 120

Next:
Qu. Could you share which IC50 value was measured for Nc1nc2c(sc(=O)n2CCN2CCN(c3ccc(OCc4nc[nH]n4)cc3F)CC2)c2nc(-c3ccco3)nn12 ?
Ans. 61
